// data source = patent US12281155

Molecular target: T1, recombinant SARS-CoV-2 Spike RBD domain, XBB.1.16 variant (SARS-CoV-2)
T1 construct: also called RBD XBB.1.16 variant
Assay: ELISA on coated RBD
property: Binding AUC
Field format: numeric only.

Briefly, Binding AUC measured for SPK002M A4 antibody (antibody, human IgG1, kappa, V domains shown) VH: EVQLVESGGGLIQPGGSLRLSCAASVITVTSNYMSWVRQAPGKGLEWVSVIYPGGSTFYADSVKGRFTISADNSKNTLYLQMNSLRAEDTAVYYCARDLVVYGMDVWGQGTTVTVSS VL: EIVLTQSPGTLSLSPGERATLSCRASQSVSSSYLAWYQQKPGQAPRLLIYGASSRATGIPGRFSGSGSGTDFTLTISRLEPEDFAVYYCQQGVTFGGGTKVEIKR : 30

Briefly, Binding AUC measured for SPK002M A1 antibody (antibody, human IgG1, kappa, V domains shown) VH: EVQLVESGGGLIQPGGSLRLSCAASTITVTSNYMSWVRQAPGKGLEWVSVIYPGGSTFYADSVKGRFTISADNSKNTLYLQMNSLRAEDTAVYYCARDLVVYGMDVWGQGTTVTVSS VL: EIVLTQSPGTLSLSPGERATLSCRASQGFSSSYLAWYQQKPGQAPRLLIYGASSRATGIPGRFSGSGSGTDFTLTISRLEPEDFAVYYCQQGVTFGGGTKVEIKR : 30

Briefly, Binding AUC measured for SPK002M C3 antibody (antibody, human IgG1, kappa, V domains shown) VH: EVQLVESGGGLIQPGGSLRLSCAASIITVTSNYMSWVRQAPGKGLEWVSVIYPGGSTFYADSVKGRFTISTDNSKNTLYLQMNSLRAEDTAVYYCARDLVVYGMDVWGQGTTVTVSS VL: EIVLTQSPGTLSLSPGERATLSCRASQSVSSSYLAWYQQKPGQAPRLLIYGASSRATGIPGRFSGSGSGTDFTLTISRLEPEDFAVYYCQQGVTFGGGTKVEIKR : 31
